- measured.target: T1, human transferrin receptor (recombinant, for surface plasmon resonance) (human, UniProt P02786 89-760)
- T1 construct: also called huTfR; human transferrin receptor-biotinylated
- T1 sequence (P02786 89-760 limits assumed): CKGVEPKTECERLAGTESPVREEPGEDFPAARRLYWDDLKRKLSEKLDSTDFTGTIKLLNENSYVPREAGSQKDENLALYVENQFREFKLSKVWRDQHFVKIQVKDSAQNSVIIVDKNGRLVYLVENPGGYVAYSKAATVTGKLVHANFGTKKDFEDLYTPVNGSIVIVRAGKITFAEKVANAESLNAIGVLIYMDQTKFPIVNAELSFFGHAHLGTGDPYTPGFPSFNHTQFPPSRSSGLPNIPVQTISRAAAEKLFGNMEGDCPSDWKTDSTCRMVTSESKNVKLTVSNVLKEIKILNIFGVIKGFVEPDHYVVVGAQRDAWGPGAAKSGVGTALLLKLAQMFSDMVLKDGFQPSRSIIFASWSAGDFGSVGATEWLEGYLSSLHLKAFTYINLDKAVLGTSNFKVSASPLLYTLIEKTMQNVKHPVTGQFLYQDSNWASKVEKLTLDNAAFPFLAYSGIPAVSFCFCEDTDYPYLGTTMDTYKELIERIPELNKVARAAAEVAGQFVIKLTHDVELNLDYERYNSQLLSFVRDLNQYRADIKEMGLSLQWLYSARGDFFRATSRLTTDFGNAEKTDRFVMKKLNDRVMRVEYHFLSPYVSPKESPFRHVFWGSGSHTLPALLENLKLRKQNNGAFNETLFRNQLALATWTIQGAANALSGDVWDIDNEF
- procedure.details: SPR B4000 25C
experimental.readout: koff (s⁻¹)

[[record]]
binder = "VH23-DANG/VK9-GYS (antibody, V domains shown) VH: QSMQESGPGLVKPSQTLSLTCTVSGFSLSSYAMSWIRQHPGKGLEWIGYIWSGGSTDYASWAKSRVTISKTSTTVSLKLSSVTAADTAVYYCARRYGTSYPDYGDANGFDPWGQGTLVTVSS VL: AIQLTQSPSSLSASVGDRVTITCRASQSISSYLAWYQQKPGKAPKLLIYRASTLASGVPSRFSGSGSGTDFTLTISSLQPEDFATYYCQQGYSSSNVDNTFGGGTKVEIK"
value_reported = 0.00396

[[record]]
binder = "VH9-DANG/VK9-CYS (antibody, V domains shown) VH: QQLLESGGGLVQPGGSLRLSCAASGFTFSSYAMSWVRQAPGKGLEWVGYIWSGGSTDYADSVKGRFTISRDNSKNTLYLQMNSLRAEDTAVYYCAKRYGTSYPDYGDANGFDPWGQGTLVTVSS VL: AIQLTQSPSSLSASVGDRVTITCRASQSISSYLAWYQQKPGKAPKLLIYRASTLASGVPSRFSGSGSGTDFTLTISSLQPEDFATYYCQQCYSSSNVDNTFGGGTKVEIK"
value_reported = 0.00652

[[record]]
binder = "VH23-DAQG/VL09-NYA (SEQ ID NO 205/193) (antibody, V domains shown, also called VH23-DAQG/VK9-NYA) VH: QSMQESGPGLVKPSQTLSLTCTVSGFSLSSYAMSWIRQHPGKGLEWIGYIWSGGSTDYASWAKSRVTISKTSTTVSLKLSSVTAADTAVYYCARRYGTSYPDYGDAQGFDPWGQGTLVTVSS VL: AIQLTQSPSSLSASVGDRVTITCRASQSISSYLAWYQQKPGKAPKLLIYRASTLASGVPSRFSGSGSGTDFTLTISSLQPEDFATYYCQQNYASSNVDNTFGGGTKVEI"
value_reported = 0.0149

[[record]]
binder = "2/99 VH23-DANG/VL9-NYA (antibody, V domains shown, also called VH23-DANG/VL09-NYA; VH23-DANG with VK9-NYA) VH: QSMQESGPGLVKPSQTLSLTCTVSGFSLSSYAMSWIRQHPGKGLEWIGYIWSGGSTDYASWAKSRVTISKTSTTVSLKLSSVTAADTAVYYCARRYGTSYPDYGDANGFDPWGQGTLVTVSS VL: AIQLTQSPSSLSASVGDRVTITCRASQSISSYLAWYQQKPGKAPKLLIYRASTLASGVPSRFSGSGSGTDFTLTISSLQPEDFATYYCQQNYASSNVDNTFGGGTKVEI"
value_reported = 0.00883


Origin of the recorded values: patent US20180291110A1
